B1: library; a variant is named by its letters at N, in order (parent)
chain: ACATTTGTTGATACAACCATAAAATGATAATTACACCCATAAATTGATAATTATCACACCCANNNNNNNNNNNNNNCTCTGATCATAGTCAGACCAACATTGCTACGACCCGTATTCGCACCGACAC

variants of: B1; assay: relative integration efficiency (T-LR orientation) vs wild-type transposon end (log2 (normalized fold change)); transposon end mutated: right end (5 bp flank + 75 bp right end); higher = more efficient transposition; details: with VchCAST RNA-guided transposition machinery (E. coli BL21(DE3) host, lacZ target)
# key: entry, value: relative integration efficiency (log2)
Please give the numeric answer without any surrounding text.

query: Tell me measured relative integration efficiency (log2) for TAAAATGATAATTA C59A please.
result: -0.0217

query: Tell me measured relative integration efficiency (log2) for ATTTAACTATAACG T9A please.
result: 2.15

query: Tell me measured relative integration efficiency (log2) for TAAATTGATATTGC T40A please.
result: -0.355
